Reported values of IC50 for individual entries
target-system: Glucocorticoid receptor (Homo sapiens, UniProt P04150)
Sequence (P04150 whole entry): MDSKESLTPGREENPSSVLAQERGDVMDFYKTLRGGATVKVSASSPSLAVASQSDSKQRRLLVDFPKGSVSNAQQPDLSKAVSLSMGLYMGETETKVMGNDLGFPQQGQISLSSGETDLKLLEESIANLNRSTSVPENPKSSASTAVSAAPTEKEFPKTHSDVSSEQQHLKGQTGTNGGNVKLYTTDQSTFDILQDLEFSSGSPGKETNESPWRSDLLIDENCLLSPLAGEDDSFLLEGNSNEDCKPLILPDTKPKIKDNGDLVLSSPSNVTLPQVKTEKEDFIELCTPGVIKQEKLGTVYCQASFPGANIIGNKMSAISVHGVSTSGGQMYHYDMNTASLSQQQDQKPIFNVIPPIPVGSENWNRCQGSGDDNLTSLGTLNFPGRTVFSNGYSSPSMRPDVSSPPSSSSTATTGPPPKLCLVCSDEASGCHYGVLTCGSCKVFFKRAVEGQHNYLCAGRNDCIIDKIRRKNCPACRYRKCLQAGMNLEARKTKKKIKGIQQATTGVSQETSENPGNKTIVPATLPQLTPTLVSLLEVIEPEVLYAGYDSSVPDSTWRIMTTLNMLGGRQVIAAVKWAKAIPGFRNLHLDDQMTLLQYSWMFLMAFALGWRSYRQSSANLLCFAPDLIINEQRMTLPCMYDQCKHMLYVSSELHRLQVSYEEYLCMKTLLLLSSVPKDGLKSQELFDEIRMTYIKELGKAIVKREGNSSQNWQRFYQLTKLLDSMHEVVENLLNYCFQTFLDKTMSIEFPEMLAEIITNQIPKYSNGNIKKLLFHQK
metric-name: IC50 (nM)

>  <structure-smiles-string>
C[C@H](NC(=O)O[C@]1(C(=O)CO)[C@@H](C)C[C@H]2[C@@H]3CCC4=CC(=O)C=C[C@]4(C)[C@@]3(F)[C@@H](O)C[C@@]21C)c1ccccc1

>  <quantitative-result>
1.3

$$$$
>  <structure-smiles-string>
C[C@@H](NC(=O)O[C@]1(C(=O)CO)[C@@H](C)C[C@H]2[C@@H]3CCC4=CC(=O)C=C[C@]4(C)[C@@]3(F)[C@@H](O)C[C@@]21C)c1ccccc1

>  <quantitative-result>
5.2

$$$$
>  <structure-smiles-string>
C[C@H]1C[C@H]2[C@@H]3CCC4=CC(=O)C=C[C@]4(C)[C@@]3(F)[C@@H](O)C[C@]2(C)[C@@]1(OC(=O)NCCC(C)(C)C)C(=O)CO

>  <quantitative-result>
12.3

$$$$

----------
target-system: Glucocorticoid receptor (Homo sapiens)
Simple rule here: IC50 less than 3 nM is MET, otherwise NOT MET.

>  <structure-smiles-string>
C[C@H]1C[C@H]2[C@@H]3CCC4=CC(=O)C=C[C@]4(C)[C@@]3(F)[C@@H](O)C[C@]2(C)[C@@]1(OC(=O)NCC(C)(C)C)C(=O)CO

>  <classification>
NOT MET

$$$$
>  <structure-smiles-string>
CCCNC(=O)O[C@]1(C(=O)CO)[C@@H](C)C[C@H]2[C@@H]3CCC4=CC(=O)C=C[C@]4(C)[C@@]3(F)[C@@H](O)C[C@@]21C

>  <classification>
NOT MET

$$$$
>  <structure-smiles-string>
CC(C)NC(=O)O[C@]1(C(=O)CO)[C@@H](C)C[C@H]2[C@@H]3CCC4=CC(=O)C=C[C@]4(C)[C@@]3(F)[C@@H](O)C[C@@]21C

>  <classification>
NOT MET

$$$$
>  <structure-smiles-string>
C[C@H]1C[C@H]2[C@@H]3CCC4=CC(=O)C=C[C@]4(C)[C@@]3(F)[C@@H](O)C[C@]2(C)[C@@]1(OC(=O)NC(C)(C)C)C(=O)CO

>  <classification>
MET

$$$$
>  <structure-smiles-string>
C[C@H]1C[C@H]2[C@@H]3CCC4=CC(=O)C=C[C@]4(C)[C@@]3(F)[C@@H](O)C[C@]2(C)[C@@]1(OC(=O)NC1CCCC1)C(=O)CO

>  <classification>
NOT MET

$$$$
>  <structure-smiles-string>
CCCCCNC(=O)O[C@]1(C(=O)CO)[C@@H](C)C[C@H]2[C@@H]3CCC4=CC(=O)C=C[C@]4(C)[C@@]3(F)[C@@H](O)C[C@@]21C

>  <classification>
MET

$$$$
>  <structure-smiles-string>
CCCCNC(=O)O[C@]1(C(=O)CO)[C@@H](C)C[C@H]2[C@@H]3CCC4=CC(=O)C=C[C@]4(C)[C@@]3(F)[C@@H](O)C[C@@]21C

>  <classification>
MET

$$$$
>  <structure-smiles-string>
C[C@H]1C[C@H]2[C@@H]3CCC4=CC(=O)C=C[C@]4(C)[C@@]3(F)[C@@H](O)C[C@]2(C)[C@@]1(OC(=O)NC12CC3CC(CC(C3)C1)C2)C(=O)CO

>  <classification>
NOT MET

$$$$
